B1: Homeobox protein SIX3, residues 212 to 262; numbered along this chain, O95343 (parent)
chain: CFKERTRSLLREWYLQDPYPNPSKKRELAQATGLTPTQVGNWFKNRRQRDR

Variants of: B1
assay explanation: abundance fitness (aPCA) (normalised: wild type 0, dead -1); higher = more abundant; growth selection in yeast, the domain comes from the species named
settings: Homo sapiens
recorded endpoint: abundance fitness
Field format: numeric only.

Challenge: Param item = G40Y ; retrieve measured abundance fitness.
Response given: -0.871

Challenge: Then this variant: T35Y
Response given: -0.826

Challenge: Then this variant: A31N
Response given: -0.506

Challenge: Then this variant: G40T
Response given: -0.183

Challenge: Then this variant: N41H
Response given: -0.168

Challenge: Then this variant: P22R
Response given: -0.362

Challenge: Then this variant: V39L
Response given: -0.84

Challenge: Then this variant: S23V
Response given: -0.094

Challenge: Then this variant: L28Y
Response given: 0.069

Challenge: Then this variant: N41K
Response given: 0.252

Challenge: Then this variant: T37R
Response given: 0.014

Challenge: Then this variant: K25W
Response given: -0.334

Challenge: Then this variant: Q38V
Response given: -0.418

Challenge: Then this variant: S23W
Response given: -0.729

Challenge: Then this variant: K25Y
Response given: -0.316

Challenge: Then this variant: T37S
Response given: -0.186

Challenge: Then this variant: L34N
Response given: -0.918

Challenge: Then this variant: T32L
Response given: -0.409

Challenge: Then this variant: G40V
Response given: -0.6

Challenge: Then this variant: L28A
Response given: -1.05

Challenge: Then this variant: Q30L
Response given: -0.139

Challenge: Then this variant: L28S
Response given: -0.833

Challenge: Then this variant: T35M
Response given: -0.715

Challenge: Then this variant: Q30D
Response given: 0.037

Challenge: Then this variant: E27I
Response given: -0.486

Challenge: Then this variant: T35P
Response given: -0.894

Challenge: Then this variant: K25N
Response given: -0.344

Challenge: Then this variant: K24T
Response given: -0.097

Challenge: Then this variant: A29Q
Response given: -0.897

Challenge: Then this variant: P22Q
Response given: -0.212

Challenge: Then this variant: V39D
Response given: -0.893

Challenge: Then this variant: P22V
Response given: 0.03

Challenge: Then this variant: A31Q
Response given: -0.023

Challenge: Then this variant: G40L
Response given: -0.731

Challenge: Then this variant: R26E
Response given: -0.002

Challenge: Then this variant: A31M
Response given: -0.087

Challenge: Then this variant: E27L
Response given: -0.515

Challenge: Then this variant: K24M
Response given: -0.246

Challenge: Then this variant: T32H
Response given: 0.036

Challenge: Then this variant: K25R
Response given: -0.177

Challenge: Then this variant: K24R
Response given: -0.137

Challenge: Then this variant: Q38L
Response given: -0.64

Challenge: Then this variant: K24Q
Response given: -0.112

Challenge: Then this variant: P36N
Response given: -0.815

Challenge: Then this variant: G40R
Response given: 0.008

Challenge: Then this variant: V39S
Response given: -0.916
